Entry source: patent US20230310428A1

Below, each of the compounds is paired with its reported IC50 value.
# study.target: various mutants of kinase EGFR (BaF3 cell lines stably transfected with kinase) (Homo sapiens, UniProt P00533, L858R)
# Construct: expressed in transfected cells; host or cells: BaF3
# Sequence (P00533 25-1210 L858R): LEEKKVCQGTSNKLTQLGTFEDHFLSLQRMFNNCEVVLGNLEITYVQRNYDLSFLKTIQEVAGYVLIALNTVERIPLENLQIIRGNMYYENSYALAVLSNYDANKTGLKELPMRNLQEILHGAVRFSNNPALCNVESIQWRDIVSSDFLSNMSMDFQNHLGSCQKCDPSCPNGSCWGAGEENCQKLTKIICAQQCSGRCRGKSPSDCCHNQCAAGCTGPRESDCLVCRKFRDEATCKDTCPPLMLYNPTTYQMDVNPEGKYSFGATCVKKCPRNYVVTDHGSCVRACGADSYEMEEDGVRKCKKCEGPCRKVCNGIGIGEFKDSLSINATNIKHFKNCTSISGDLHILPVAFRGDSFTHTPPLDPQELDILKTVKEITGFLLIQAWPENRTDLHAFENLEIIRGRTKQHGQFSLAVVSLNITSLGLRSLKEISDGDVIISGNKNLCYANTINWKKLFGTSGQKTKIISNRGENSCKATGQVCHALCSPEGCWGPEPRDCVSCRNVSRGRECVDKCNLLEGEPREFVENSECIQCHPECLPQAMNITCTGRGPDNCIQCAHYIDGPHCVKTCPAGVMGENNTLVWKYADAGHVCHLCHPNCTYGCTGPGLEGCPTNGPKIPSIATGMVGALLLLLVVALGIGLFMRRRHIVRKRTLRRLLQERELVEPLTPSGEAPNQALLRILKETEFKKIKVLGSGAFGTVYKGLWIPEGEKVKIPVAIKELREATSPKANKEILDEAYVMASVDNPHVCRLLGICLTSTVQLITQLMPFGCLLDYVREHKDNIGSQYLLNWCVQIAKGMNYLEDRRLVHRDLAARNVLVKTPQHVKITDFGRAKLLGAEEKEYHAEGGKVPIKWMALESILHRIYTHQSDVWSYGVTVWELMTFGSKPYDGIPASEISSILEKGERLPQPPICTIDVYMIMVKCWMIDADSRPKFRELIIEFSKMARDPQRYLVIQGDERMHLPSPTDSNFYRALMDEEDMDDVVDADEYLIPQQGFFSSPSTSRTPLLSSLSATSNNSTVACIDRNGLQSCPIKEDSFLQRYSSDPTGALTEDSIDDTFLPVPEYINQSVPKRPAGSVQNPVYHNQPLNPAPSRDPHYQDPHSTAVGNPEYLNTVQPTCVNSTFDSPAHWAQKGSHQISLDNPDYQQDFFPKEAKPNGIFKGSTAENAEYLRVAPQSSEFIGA
# experimental.protocol: Growth inhibitory activity of compounds on BaF3 cell lines stably transfected with kinase (MTS, 48 h)
# Format: cell-based
# measurement.parameters: BaF3 cells stably transfected with EGFR L858R, read-out: IC50, growth inhibition, L858R

For orientation, consider the following solved cases.
compound	IC50
CCc1cc(Nc2ncc(Br)c(Nc3ccc4nccnc4c3N(C)S(C)(=O)=O)n2)c(OC)cc1N1CCN(C)CC1	≤ 50 nM
CCc1cc(Nc2ncc(Br)c(Nc3ccc4nccnc4c3N(CC)S(C)(=O)=O)n2)c(OC)cc1N1CCC(N(C)C)C1 (stereo not drawn)	≤ 50 nM

Now for the compound whose IC50 we want.
Measured IC50, C=Cc1cc(Nc2ncc(Cl)c(Nc3ccc4nccnc4c3N(CC)S(C)(=O)=O)n2)c(OC(F)(F)F)cc1N1CCC(N2CCN(C)CC2)CC1 : 50 to 500 nM
